# protocol.notes: yeast display, Sf9 membrane polyspecificity reagent, FACS + sequencing; frameworks hold sequencing errors
measurement.type: polyreactivity (PSR sort gate)

[
  {
    "polymer.sequence": "QVQLVESGGGLVQAGGSLRLSCAASGITFYKNVMGWYRQAPGKERELVAAISSSGGSTYYADSVKGRFTISRDNAKNTVYLQMNSLKPEDTAVYYCAADEDDVVSGFLRYFYVAYYYWGQGTQVTVSS",
    "polyreactivity (PSR sort gate)": "low polyreactivity"
  },
  {
    "polymer.sequence": "QVQLVDSGGGLVQAGGSLRLSCAASGRTFRLNDMGWYRQAPGKDRELVAAITRSGGSTYYADSVKGRFTISRDNAKNTVYFQMNSLKPEDTAVYYCNAVRSRYYDDYDYWGQGTQVTVSS",
    "polyreactivity (PSR sort gate)": "high polyreactivity"
  },
  {
    "polymer.sequence": "QVQLVESGGGLVQAGGSLRLSCAASGNTFRIYTMGWYRQAPGKERELVATITRRGGSTYYADSVKGRFTISRDNAKNTVYLQMNSLKPEDTAVYYCAARVRGTGVYGGYNYWGQGTQVTVSS",
    "polyreactivity (PSR sort gate)": "high polyreactivity"
  },
  {
    "polymer.sequence": "QVQLVESGGGLVQAGGSLRLSCAASGNTFYYNAMGWYRQAPGKEREFVAAITSSGGGTYYADSVKGRFTISRDNAKNTVYLQMNSLKPEDTAVYYCAADATYRKQVIFYYWGQGTQVTVSS",
    "polyreactivity (PSR sort gate)": "low polyreactivity"
  }
]

Read the next record carefully.
Give the reported value of polyreactivity (PSR sort gate) for this record: QVQLVESGGGLVQAGGSLRLSCAASGIIFTNYGMGWYRQAPGKERELGAVISRRGGSTYYADSVKGRFTISRDNAKNTVYLQMNSLKPEDTAVYYCNTRTQGAKQYTGYDYWGQGTQVTVSS high polyreactivity

###

# protocol.notes: yeast display, Sf9 membrane polyspecificity reagent, FACS + sequencing; frameworks hold sequencing errors
measurement.type: polyreactivity (PSR sort gate)

Solved cases below.
[
  {
    "polymer.sequence": "QVQLVESGGGLVQAGGSLRLSCAASGITFYYNTMGWYRQAPGKERELVAAISSRSGSTYYADSVKGRFTISRDKAKNNVSLQMNCLKPEDTAVYYCAARRAAKYYWGQGTQVTVSS",
    "polyreactivity (PSR sort gate)": "high polyreactivity"
  },
  {
    "polymer.sequence": "QVQLVESGGGLVQAGGSLRLSCAASGGTFAGYAMGWYRLAPGKERELVAAISWSSGRTYYADSVKGRFTISRDNAKNTVYLQMNSLKPEDTAVYYCNVLRYRGYDYWGQGTQVTVSS",
    "polyreactivity (PSR sort gate)": "high polyreactivity"
  },
  {
    "polymer.sequence": "QDQVVESGGGLVQAGGSLRLSCAASGRIFFAYAMGLYRQAAGTERELVAAITSSGNTYYADSVKGRFTISRDNAKNTVFLQINSLKPEDTAVYYCATGYWELRYDYWGQGTQLTVSS",
    "polyreactivity (PSR sort gate)": "low polyreactivity"
  },
  {
    "polymer.sequence": "QVQLVDSGGGLVQAGGSLRLSCAASGFIFQYYAMGWYRQAPGKEMGLVAAISFSGGSTYYADSVKGRFTISRDNAKNTVYLQMNSLKPEDTAVYYCAAEVYSVGDYSGHDYYWGQGTQVTVSS",
    "polyreactivity (PSR sort gate)": "low polyreactivity"
  }
]

Give the reported value of polyreactivity (PSR sort gate) for this record: QVQLVESGGGLVQAGGSLRLSCAASGSTFAGYAMGWYRQEPGKERELVAAISGSGGTTYYADSVKGRFTISRDNAKNTVYLQMNSLKPEDNAVYYCAALRGRYYGGLGDYWGQGTQVTVSS high polyreactivity
